target: … (SEQ ID NO: 1)-HLA-A*02 complex (soluble, biotinylated) (human); assay: SPR (BIAcore) or BLI (Octet) per Example 3, biotinylated pHLA immobilised, 25 C
Would you kindly list pKd for each of these binders?
One number for each entry, as −log10 of the molar value.

Recorded results for 2 binders are shown here.
# binder, pKd
data = [
    ("ImmTAC molecule comprising a109 (SEQ ID NO: 8) and b46 (SEQ ID NO: 11) (TCR, part only; not given: anti-CD3 scFv, linker, TCR constants, part only) TCR alpha, part: GDAKTTQPNSMESNEEEPVHLPCNHSTISGTDYIHWYRQLPSQGPEYVIHGLTSNVNNRMASLAIAEDRKSSTLILHRATLRDAAVYYCILILGHSRLGNYQATFGKGTKLSVIP TCR beta, part: DGGITQSPKYLFRKEGQNVTLSCEQNLNHDAMYWYRQDPGQGLRLIYYSQIMGDEQKGDIAEGYSVSREKKESFPLTVTSAQKNPTAFYLCASSWWTGGSAPIRFGPGTRLTVT", 9.77),
    ("ImmTAC molecule comprising a79 (SEQ ID NO: 7) and b71 (SEQ ID NO: 15) (TCR, part only; not given: anti-CD3 scFv, linker, TCR constants, part only) TCR alpha, part: GDAKTTQPNSMESNEEEPVHLPCNHSTISGTDYIHWYRQLPSQGPEYVIHGLTSNVNNRMASLAIAEDRKSSTLILHRATLRDAAVYYCILILGHSRLGNYIATFGKGTKLSVIP TCR beta, part: DGGITQSPKYLFRKEGQNVTLSCEQNLNHDAMYWYRQDPGQGLRLIYYSQIMGDEQKGDIAEGYSVSREKKESFPLTVTSAQKNPTAFYLCASSWWTGGSAPIYFGPGTRLTVT", 10.06),
]

Kindly consider the entry below.
Field request: pKd | item: ImmTAC molecule comprising a79 (SEQ ID NO: 7) and b58 (SEQ ID NO: 21) (TCR, part only; not given: anti-CD3 scFv, linker, TCR constants, part only) TCR alpha, part: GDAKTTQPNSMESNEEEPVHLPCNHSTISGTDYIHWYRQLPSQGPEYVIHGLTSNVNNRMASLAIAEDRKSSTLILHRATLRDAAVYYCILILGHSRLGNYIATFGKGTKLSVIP TCR beta, part: DGGITQSPKYLFRKEGQNVTLSCEQNLNHDAMYWYRQDPGQGLRLIYYSQIMGDEQKGDIAEGYSVSREKKESFPLTVTSAQKNPTAFYLCASSWWTGGSSPISFGPGTRLTVT
10.64

Every entry's value here was drawn from patent US20240368243A1.
